Hi there, I'd appreciate the recorded melting point for every entry that follows.
One number for each entry, in °C.

Problem: Give the value of melting point reported for the following: COc1cc(CC(=O)Nc2ccc(C3CN(C(=O)c4ccccc4)CC3C(=O)O)cc2)ccc1NC(=O)Nc1ccccc1C (centres unmarked) [Example 2]
Solution: 248

Problem: Give the value of melting point reported for the following: COc1cc(CC(=O)Nc2ccc(C3CN(C(=O)CCC(=O)O)CC3C(=O)O)cc2)ccc1NC(=O)Nc1ccccc1C (centres unmarked) [Example 3]
Solution: 184

Problem: Give the value of melting point reported for the following: COc1cc(CC(=O)Nc2ccc(C3CN(Cc4ccccc4)CC3C(=O)O)cc2)ccc1NC(=O)Nc1ccccc1C (centres unmarked) [Example 5]
Solution: 255

Continuing:
Problem: Give the value of melting point reported for the following: COc1cc(CC(=O)Nc2ccc(C3CN(C(C)=O)CC3C(=O)O)cc2)ccc1NC(=O)Nc1ccccc1C (centres unmarked) [Example 1]
Solution: 242
